Target: T1, CFP-ARC1 (TNKS1) (human, N-terminal mCerulean fusion omitted; conventional ARC limits)
T1 chain: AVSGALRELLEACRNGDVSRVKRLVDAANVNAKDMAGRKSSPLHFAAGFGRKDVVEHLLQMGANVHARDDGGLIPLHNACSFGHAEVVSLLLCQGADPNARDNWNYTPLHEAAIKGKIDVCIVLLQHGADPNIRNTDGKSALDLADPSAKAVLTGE
Assay: FRET or BRET; titration for Kd after Song et al.: CFP-fusion kept constant (50 nM to 1.1 µM), YFP-fusion 0-4,000 nM; FRET emission on excitation at 430 nm; assay buffer 10 mM Bis-Tris-Propane pH 7.0, 3% PEG20,000, 0.01% Triton-X100, 0.5 mM TCEP; 384-well plates, 4 replicates; the paper calls the constants an estimation
Conditions: both partners purified
pKd: −log10 of the molar value.
Measurement Type: pKd

INSERT INTO results (binder, readout_number) VALUES
  ('REAGDGEE (also called TBM (REAGDGEE); YFP-fused TBM; source: E. coli BL21(DE3), purified (IMAC); not shown: mCitrine (YFP), N-terminal, kept) [YFP-TBM]', 5.59);
